Each entry below carries its recorded IC50.
- study_system: GSNOR (Homo sapiens)
- Construct: made in house; host or cells: E. coli (arabinose-induced)
- test_method_notes: GSNOR assay (inhibition of GSNOR activity, NADH absorbance at 340 nm)
- Assay type: biochemical
- study_conditions: assay of Example 24; 0.240 mM GSNO, 0.300 mM NADH, pH 7.4, 25° C.; read-out: IC50 (GSNOR inhibitor activity)
- Method: Various compounds were tested in vitro for their ability to inhibit GSNOR activity. GSNOR expression and purification is described in Biochemistry 2000, 39, 10720-10729. […] GSNOR Assay: GSNO and Enzyme/NADH Solutions are made up fresh each day. […] The cuvette is placed in the Cary 3E UV/Visible Spectrophotometer and the change in 340 nm absorbance/min at 25° C. is recorded for 3 minutes. […] IC50's for each compound are calculated using the standard curve analysis in the Enzyme Kinetics Module of SigmaPlot. […]
assay_endpoint: IC50

chem_smiles=CCC(F)(F)c1oc2cc(O)ccc2c(=O)c1-c1ccc(C(=O)O)cc1 data_value="< 500 nM"
chem_smiles=O=C(O)c1ccc(-c2c(C(F)(F)F)oc3cc(O)ccc3c2=O)cc1 data_value="< 100 nM"
chem_smiles=COCc1oc2cc(O)ccc2c(=O)c1-c1ccc(C(=O)O)cc1 data_value="< 500 nM"
chem_smiles=CC(F)(F)c1oc2cc(O)ccc2c(=O)c1-c1ccc(C(=O)O)cc1 data_value="< 100 nM"
chem_smiles=O=C(O)c1ccc(-c2c(C(F)F)oc3cc(O)ccc3c2=O)cc1 data_value="< 100 nM"
chem_smiles=O=C(O)c1ccc(-c2c(C(F)(F)F)oc3cc(O)ccc3c2=O)cc1F data_value="< 100 nM"
chem_smiles=Cc1oc2cc(O)ccc2c(=O)c1-c1ccc(C(=O)O)cc1 data_value="< 500 nM"
chem_smiles=COc1cc(C(=O)O)ccc1-c1c(C(F)(F)F)oc2cc(O)ccc2c1=O data_value="< 100 nM"

====

- study_system: GSNOR (Homo sapiens, UniProt P11766)
- Construct: made in house; host or cells: E. coli (arabinose-induced)
- Sequence (P11766 whole entry): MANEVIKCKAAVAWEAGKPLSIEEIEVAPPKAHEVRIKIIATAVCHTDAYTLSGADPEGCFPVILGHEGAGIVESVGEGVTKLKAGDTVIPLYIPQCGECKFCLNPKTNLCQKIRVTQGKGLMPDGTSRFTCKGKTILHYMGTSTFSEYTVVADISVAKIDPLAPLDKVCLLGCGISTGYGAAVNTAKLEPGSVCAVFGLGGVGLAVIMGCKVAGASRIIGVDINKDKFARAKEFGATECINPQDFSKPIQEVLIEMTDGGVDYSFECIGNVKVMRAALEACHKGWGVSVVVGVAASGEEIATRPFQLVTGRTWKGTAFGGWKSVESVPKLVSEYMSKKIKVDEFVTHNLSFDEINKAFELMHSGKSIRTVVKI
- test_method_notes: GSNOR assay (inhibition of GSNOR activity, NADH absorbance at 340 nm)
- Type: biochemical
- study_conditions: assay of Example 24; 0.240 mM GSNO, 0.300 mM NADH, pH 7.4, 25° C.; read-out: IC50 (GSNOR inhibitor activity)
assay_endpoint: IC50

chem_smiles=O=C(O)c1ccc(-c2c(C(F)(F)F)oc3cc(O)ccc3c2=O)c(Cl)c1 data_value="< 100 nM"
chem_smiles=CC(C)c1oc2cc(O)ccc2c(=O)c1-c1ccc(C(=O)O)cc1 data_value="< 500 nM"
chem_smiles=O=C(O)c1ccc(-c2c(C(F)(F)F)oc3cc(O)c(F)cc3c2=O)cc1 data_value="< 500 nM"
chem_smiles=O=C(O)c1ccc(-c2c(Cc3ccccc3)oc3cc(O)ccc3c2=O)cc1 data_value="< 500 nM"
chem_smiles=O=C(O)c1ccc(-c2c(C(F)(F)F)oc3cc(O)ccc3c2=O)cc1Cl data_value="< 100 nM"

Data origin, for the record: patent US9717706B2
